Kindly supply the reported growth values for the records listed here.
system: NCI-H322M lung; assay: NCI-60 one-dose screen, 48 h (100 = growth as untreated, 0 = no growth, -100 = all killed); conditions: 10 µM unless noted
Compounds without any hit were thinned out: in the full panel of roughly 83,000, 20% have a hit. Active and inactive are the calls of the source. How the source made its calls: active means growth percent below 10; inactive means the rest.

# compound O=C(N/N=C/c1cccc(O)c1O)c1ccccc1 ; its growth = 13.9% (inactive)

# compound O=C(COc1ccc(/C=C2\Oc3ccc4ccccc4c3C2=O)cc1)c1ccc([N+](=O)[O-])cc1 ; its growth = 99.9% (inactive)

# compound Cc1ccc2nc(-c3ccc(N(C)C)c(Br)c3)cn2c1 ; its growth = 120% (inactive)

# compound COc1ccc(OC)c2c1CCC1(C2)NC(=O)NC1=O (stereo not given) ; its growth = 107% (inactive)

# compound COC(=O)[C@H](Cc1cn(C)cn1)NC(=O)[C@H](Cc1ccccc1)NC(=O)Nc1cc(C(F)(F)F)cc(C(F)(F)F)c1 ; its growth = -94.2% [100 µM] (active)

# compound CC1=C([Se]CC(OC(=O)[C@@H](CSSC(C)(C)C)NC(=O)C(C)(C)C)C(=O)NCCCCCC(=O)OCc2ccccc2)C(=O)c2ccccc2C1=O (stereo not given in full) ; its growth = -22.6% (active)

# compound COc1cc(NC(C)CCCN)c2nc(C)ccc2c1Oc1ccc(F)cc1 (stereo not given) ; its growth = 37.4% (inactive)

# compound O=C1/C(=C/c2ccccc2Cl)CCc2ccccc21 ; its growth = 101% (inactive)

# compound CN1CCC[C@@H]1CCO[C@](C)(c1ccccc1)c1ccc(Cl)cc1 ; its growth = 78.4% (inactive)

# compound COc1cccc(C=Nc2cc(C(C)C)c(O)cc2C)c1O ; its growth = 95.3% (inactive)
